metric: melting point

Item under review: "N#CCCCOc1ccc(-c2nnc(CSCCOc3ccccc3)o2)cc1" . Reported melting point?
67 to 68 °C

---

Recorded measurements of melting point, one per entry

Consider the following illustrative entries.
COc1ncc(C)nc1NS(=O)(=O)c1cccc(Cl)c1Cl : 50 to 60 °C
CCOC(=O)c1cccc(NC(=O)NCC(=O)O)c1 : 174 °C
Cc1nnc(-c2ccc3occ(-c4ccc(S(C)=O)c(OC(F)(F)F)c4)c3c2)o1 (centres undefined) : 182 to 183 °C
O=C1Nc2ccc(F)cc2C1c1ncnc2c1cnn2C1CCCCC1 (centres undefined) : 282 to 286 °C
Cc1cc(C)n(-c2nc(Nc3cccc(C(F)(F)F)c3)c3ccccc3n2)n1 : 233 to 240 °C
O=C(c1ccccc1)c1ccc(OCCCCCCBr)c(Cl)c1 : 58 °C
Cc1cc(C)c(C(=O)c2ccccc2C)c(O)c1 : 65 to 67 °C
Nc1ccc(S(=O)(=O)c2cc(Cl)nc(N3CCCC3)c2)cc1 : 225 to 226 °C

# input for lookup
Item under review: "CCOc1nc2c(C)sc(C(=O)OC)c2n1Cc1ccc(-c2ccccc2)c(-c2nc(=O)o[nH]2)c1" . Reported melting point?
208 to 210 °C

---

metric: melting point

COc1cc(CCc2ccc(N)nn2)cc(OC)c1OC : 130 to 132 °C

Item under review: "COc1c(C)sc2nc(SCc3ccccc3)nn12" . Reported melting point?
101 to 103 °C

Item under review: "O=C(CCCCl)c1cc2c(s1)SCCNC2=O" . Reported melting point?
124 to 125 °C

Item under review: "c1ccc2c(c1)c1nncn1c1c(-c3noc(C4CC4)n3)ncn21" . Reported melting point?
308 to 314 °C

Item under review: "O=c1[nH]c2cc(Sc3cccc4cnccc34)c([N+](=O)[O-])cc2s1" . Reported melting point?
> 270 °C

Item under review: "Cc1cccc(C(N)=O)c1Nc1nc(Nc2ccc3c(c2)N(C(C)C)C(=O)CCC3)ncc1Cl" . Reported melting point?
140 to 160 °C

Item under review: COc1cc(C(=O)N(C)CC(CCN2CCC(C(=O)c3nc4ccccc4n3Cc3ccccn3)CC2)c2ccc(F)cc2)cc(OC)c1OC (stereo not drawn) . Reported melting point?
30 to 35 °C

Item under review: "N#CCN1CCC(=C2c3ccccc3CCn3ccnc32)CC1" . Reported melting point?
220 °C

Item under review: "CN(CCC#N)C(=O)c1nc(Cl)c(Cl)[nH]1" . Reported melting point?
184 °C

Item under review: "Cc1cc2ccccn2c1" . Reported melting point?
57 to 58 °C

Item under review: COc1cc(C(=O)NS(=O)(=O)c2ccccc2C)ccc1Cc1cn(C)c2ccc(CC(C)C(=O)NCC3CCCC3)cc12 (stereo not drawn) . Reported melting point?
119 to 126 °C

Item under review: CC1CCC(C2=C(O)C(=O)c3ccccc3C2=O)CC1 (stereo not drawn) . Reported melting point?
101 °C

Item under review: "CC(C)(C)OC(=O)N[C@H](CCCNC(N)=N[N+](=O)[O-])C(=O)NCc1ccc(CNC(N)=O)cc1" . Reported melting point?
172 °C

---

Recorded measurements of melting point, one per entry

Consider the following illustrative entries.
COC(=O)c1ccc(OC(=O)c2cccc(C(=O)Oc3ccc(C(=O)OC)cc3)c2)cc1 : 215 to 217 °C
CC(C)SC(=O)CCS(=O)(=O)C(C)C : 45 to 47 °C
Cc1cc(Cl)ccc1N1CCCN(CC(C)C)C1=S : 88 to 90 °C
O=C(O)c1cc(F)c(F)c(F)n1 : 81 to 82 °C
O=C(C1CCCCC1)N1CCN2C(=O)c3ccccc3C2C1=O (stereo not given) : 167 to 172 °C
O=C1NC(=O)C(Cc2ccc3nc(Cc4ccc(Cl)cc4)oc3c2)S1 (stereo not given) : 220 °C

Item under review: "CCCCCc1ccc(OCC23CCC(CCC)(CC2)CC3)c(C#N)c1C#N" . Reported melting point?
133 °C

Item under review: "O=C(O)c1cccc2c1[nH]c1c(Cl)c(Cl)ccc12" . Reported melting point?
290 °C

Item under review: "O=C(c1cccs1)c1cnn2c(-c3cccc(NCc4cccc(Cl)c4)c3)ccnc12" . Reported melting point?
133 to 135 °C

Item under review: "CCCCc1oc2ccccc2c1C(=O)c1ccc(OCCBr)cc1" . Reported melting point?
46 to 47 °C
